tested_system: Bek (Homo sapiens)
test: Inhibitory activity against Bek-autophosphorylation using ELISA method in OCUM-2MD3 cells
test_settings: 1 hr with compound, read-out: IC50 (concentration necessary for inhibiting 50% of Bek-phosphorylation)
readout_label: IC50 (nM)

Worked cases, IC50 given:
COc1cc2c(Oc3ccc(Nc4ccc(C(C)(C)C)cc4)cc3)ccnc2cc1OCCN1CCCCCC1 ... 35
COc1cc2c(Oc3ccc(NC(=O)NCCC(C)(C)C)cc3)ccnc2cc1OCCCN1C[C@@H](C)O[C@@H](C)C1 ... 21.1
COc1cc2c(Oc3ccc(NC(=O)NCCC(C)(C)C)c(Cl)c3)ccnc2cc1OCCCN1CCCC1 ... 17.3

A. COc1cc2c(Oc3ccc(NC(=O)NCCC(C)(C)C)cc3F)ccnc2cc1OCCN1CCC(CO)CC1
B. COc1cc2nccc(Oc3ccc(Nc4ccc(C(C)(C)C)cc4)cc3)c2cc1OCCN1CCC(CO)CC1
C. COc1cc2c(Oc3ccc(NC(=O)NCCC(C)(C)C)c(F)c3)ccnc2cc1OCCN1CCC(O)CC1
Request: Give the ascending ranking of the items by reported IC50. Labels, requested order.
Result: A, C, B

* * *

tested_system: Bek (Homo sapiens)
test: Inhibitory activity against Bek-autophosphorylation using ELISA method in OCUM-2MD3 cells
test_settings: 1 hr with compound, read-out: IC50 (concentration necessary for inhibiting 50% of Bek-phosphorylation)
readout_label: IC50 (µM)

Worked cases, IC50 given:
COc1cc2c(Oc3ccc(Nc4ccc(C(C)(C)C)cc4)cc3)ccnc2cc1OCCCN1CCOCC1 [Compound 24] ... 0.183
COc1cc2c(Oc3ccc(NC(=O)NCCC(C)(C)C)c(Cl)c3)ccnc2cc1OCCCN1CCC[C@H]1CO [Compound 208] ... 0.027
COc1cc2c(Oc3ccc(Nc4ccc(C(C)(C)C)cc4)cc3)ccnc2cc1OCC(O)CN(C)C (stereo not drawn) [Compound 67] ... 0.189
COc1cc2c(Oc3ccc(NC(=O)NCCC(C)(C)C)cc3)ccnc2cc1OCCCN1CCC(Cc2ccccc2)CC1 [Compound 247] ... 0.0819
COc1cc2c(Oc3ccc(NC(=O)NCCC(C)(C)C)cc3)ccnc2cc1OCC(O)CN1CC(C)CC(C)C1 (stereo not drawn) [Compound 251] ... 0.0207

a. COc1cc2c(Oc3ccc(Nc4ccc(C(C)(C)C)cc4)cc3)ccnc2cc1OCCCN1CCC(CO)CC1 [Compound 217]
b. COc1cc2nccc(Oc3ccc(NC(=O)NCCC(C)(C)C)cc3F)c2cc1OCCCN1CC(C)OC(C)C1 (stereo not drawn) [Compound 231]
c. COc1cc2c(Oc3ccc(Nc4ccc(C(C)(C)C)cc4)c(F)c3)ccnc2cc1OCCN1CCC(CCO)CC1 [Compound 305]
d. COc1cc2c(Oc3ccc(NC(=O)NCCC(C)(C)C)c(Cl)c3)ccnc2cc1OCCN1CCC(O)CC1 [Compound 274]
e. COc1cc2c(Oc3ccc(Nc4ccc(C(C)(C)C)cc4)cc3)ccnc2cc1OCCCCl [Compound 23]
Request: Reorder: IC50, max to min. Labels, requested order.
Result: e, c, b, a, d
(e: 0.762 µM, c: 0.359 µM, b: 0.113 µM, a: 0.0409 µM, d: 0.0278 µM)

* * *

tested_system: Bek (Homo sapiens, UniProt P21802)
Sequence (P21802 431-767 limits assumed): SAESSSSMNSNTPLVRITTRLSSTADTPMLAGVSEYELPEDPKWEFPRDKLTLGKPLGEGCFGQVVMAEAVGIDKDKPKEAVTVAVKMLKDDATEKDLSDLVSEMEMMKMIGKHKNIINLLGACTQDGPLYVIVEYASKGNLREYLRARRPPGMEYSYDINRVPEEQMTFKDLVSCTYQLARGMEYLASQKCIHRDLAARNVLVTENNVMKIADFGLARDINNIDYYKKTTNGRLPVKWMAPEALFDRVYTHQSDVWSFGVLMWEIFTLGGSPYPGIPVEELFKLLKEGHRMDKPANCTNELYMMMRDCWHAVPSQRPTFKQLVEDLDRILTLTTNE
test: Inhibitory activity against Bek-autophosphorylation using ELISA method in OCUM-2MD3 cells
test_settings: 1 hr with compound, read-out: IC50 (concentration necessary for inhibiting 50% of Bek-phosphorylation)
Counter-ions that a name gives are not always drawn.
readout_label: IC50 (nM)

COc1cc2nccc(Oc3ccc(NC(=O)NCCC(C)(C)C)c(C(F)(F)F)c3)c2cc1OC ... 63.8
COc1cc2c(Oc3ccc(NC(=O)NCCC(C)(C)C)cc3F)ccnc2cc1OCCCN1CC(C)OC(C)C1 (stereo not shown) ... 20.6
COc1cc2c(Oc3ccc(NC(=O)NCCC(C)(C)C)cc3F)ccnc2cc1OCCN1CCC(O)CC1 ... 19.8
COc1cc2c(Oc3ccc(NC(=O)NCCC(C)(C)C)c(F)c3)ccnc2cc1OC(=O)N1CCC(N2CCCCC2)CC1 ... 32.1
COc1cc2c(Oc3ccc(Nc4ccc(C(C)(C)C)cc4)cc3)ccnc2cc1OCCN(C)CCO [Compound 49] ... 33.9

1. CCNCC(O)COc1cc2nccc(Oc3ccc(Nc4ccc(C(C)(C)C)cc4)cc3)c2cc1OC (stereo not shown)
2. COc1cc2nccc(Oc3ccc(Cc4ccc(C(C)(C)C)cc4)cc3)c2cc1OC
3. COc1cc2c(Oc3ccc(Nc4ccc(C(C)(C)C)cc4)cc3)ccnc2cc1OCCC(N)=O
4. COc1cc2c(Oc3ccc(NC(=O)NCCC(C)(C)C)cc3)ccnc2cc1OCCN1CCOCC1 [Compound 112, hydrochloride]
5. COc1cc2c(Oc3ccc(Nc4ccc(C(C)(C)C)cc4)cc3)ccnc2cc1OCC1CCCN1C (stereo not shown)
Request: Give the ascending ranking of the items by reported IC50. Labels, requested order.
Result: 4, 1, 3, 2, 5
(4: 52.1 nM, 1: 199 nM, 3: 318 nM, 2: 693 nM, 5: 1200 nM)

I. COc1cc2c(Oc3ccc(Nc4ccc(C(C)(C)C)cc4)cc3F)ccnc2cc1OCCCN1CCC(CO)CC1
II. C=Cc1ccc(Nc2ccc(Oc3ccnc4cc(OC)c(OC)cc34)cc2)cc1
Request: Of I versus II , which is the one with smaller reported IC50? Your answer should be the label of the entry you select.
Result: I
(I: 303 nM, II: 7940 nM)

1. COc1cc2c(Oc3ccc(Nc4ccc(C(C)(C)C)cc4)c(Cl)c3)ccnc2cc1OCCCN1CCC(O)CC1
2. COc1cc2nccc(Oc3ccc(Nc4ccc(C(C)(C)C)cc4)c(C)c3C)c2cc1OC
Request: Of 1 versus 2 , which is the one with smaller reported IC50? Your answer should be the label of the entry you select.
Result: 2

I. COc1cc2c(Oc3ccc(NC(=O)NCCC(C)(C)C)c(Cl)c3)ccnc2cc1OCCNCCO
II. COc1cc2c(Oc3ccc(Nc4ccc(C(C)(C)C)cc4)cc3)ccnc2cc1OCCCN1CCC(N2CCCCC2)CC1
III. COc1cc2c(Oc3ccc(NC(=O)NCCC(C)(C)C)cc3)ccnc2cc1OCCN(CCO)C(C)C
IV. COc1cc2c(Oc3ccc(Nc4ccc(C(C)(C)C)cc4)cc3)ccnc2cc1OCCN(CCO)C(C)C
Request: Give the ascending ranking of the items by reported IC50. Labels, requested order.
Result: I, III, II, IV
